condition: in ethanol, 303.15 K
parameter_measured: solubility (mole fraction)

### Prompt I am curious: what solubility (mole fraction) value has been reported for O=C(O)c1cccnc1Cl ?
### Response 0.00953

* * *

condition: in acetone, 288.15 K
parameter_measured: solubility (mole fraction)

### Prompt I am curious: what solubility (mole fraction) value has been reported for O=C(O)c1cccnc1Cl ?
### Response 0.0133

* * *

condition: in 1,4-dioxane, 293.15 K
parameter_measured: solubility (mole fraction)
Numbers only.

### Prompt I am curious: what solubility (mole fraction) value has been reported for O=C(O)c1cccnc1Cl ?
### Response 0.0103

* * *

condition: in methanol, 273.15 K
parameter_measured: solubility (mole fraction)
Give bare numbers.

### Prompt I am curious: what solubility (mole fraction) value has been reported for O=C(O)c1cccnc1Cl ?
### Response 0.00227

* * *

condition: in ethanol, 313.15 K
parameter_measured: solubility (mole fraction)
Numbers only.

### Prompt I am curious: what solubility (mole fraction) value has been reported for O=C(O)c1cccnc1Cl ?
### Response 0.0129

* * *

condition: in isopropanol, 313.15 K
parameter_measured: solubility (mole fraction)
One number for each entry.

### Prompt I am curious: what solubility (mole fraction) value has been reported for O=C(O)c1cccnc1Cl ?
### Response 0.0147

* * *

condition: in ethanol, 308.15 K
parameter_measured: solubility (mole fraction)
One number for each entry.

### Prompt I am curious: what solubility (mole fraction) value has been reported for O=C(O)c1cccnc1Cl ?
### Response 0.0112

* * *

condition: in acetonitrile, 288.15 K
parameter_measured: solubility (mole fraction)
Numbers only.

### Prompt I am curious: what solubility (mole fraction) value has been reported for O=C(O)c1cccnc1Cl ?
### Response 0.00214

* * *

condition: in DMF, 308.15 K
parameter_measured: solubility (mole fraction)

### Prompt I am curious: what solubility (mole fraction) value has been reported for O=C(O)c1cccnc1Cl ?
### Response 0.327

* * *

condition: in water, 298.15 K
parameter_measured: solubility (mole fraction)
One number for each entry.

### Prompt I am curious: what solubility (mole fraction) value has been reported for O=C(O)c1cccnc1Cl ?
### Response 0.000171

* * *

condition: in NMP, 313.15 K
parameter_measured: solubility (mole fraction)
Numbers only.

### Prompt I am curious: what solubility (mole fraction) value has been reported for O=C(O)c1cccnc1Cl ?
### Response 0.478

* * *

condition: in water, 283.15 K
parameter_measured: solubility (mole fraction)
One number for each entry.

### Prompt I am curious: what solubility (mole fraction) value has been reported for O=C(O)c1cccnc1Cl ?
### Response 0.00012

* * *

condition: in acetonitrile, 293.15 K
parameter_measured: solubility (mole fraction)
Give bare numbers.

### Prompt I am curious: what solubility (mole fraction) value has been reported for O=C(O)c1cccnc1Cl ?
### Response 0.00263

* * *

condition: in acetone, 298.15 K
parameter_measured: solubility (mole fraction)
Give bare numbers.

### Prompt I am curious: what solubility (mole fraction) value has been reported for O=C(O)c1cccnc1Cl ?
### Response 0.0166

* * *

condition: in NMP, 298.15 K
parameter_measured: solubility (mole fraction)
One number for each entry.

### Prompt I am curious: what solubility (mole fraction) value has been reported for O=C(O)c1cccnc1Cl ?
### Response 0.36

* * *

condition: in methanol, 313.15 K
parameter_measured: solubility (mole fraction)
Numbers only.

### Prompt I am curious: what solubility (mole fraction) value has been reported for O=C(O)c1cccnc1Cl ?
### Response 0.00927

Where these numbers come from: BigSolDB 2.1
